Test system: Mus musculus
Experiment summary: Antinociceptive activity in i.c.v dosed LPS-induced ICR-CD1 mouse thermal hyperalgesia model assessed as withdrawal latency for radiant heat by tail flick assay
Assay type: functional
ED50 for assorted compounds
Provide the reading as a plain figure in pmol.

Worked examples follow.
CNC(=O)COCC(=O)NCCCCCCCNC(=O)COCC(=O)N[C@H]1CC[C@@]2(O)[C@H]3Cc4ccc(O)c5c4[C@@]2(CCN3C)[C@H]1O5 = 168.9
Cc1ccc(N(CCCN2CCC(Cc3ccc(C(N)=O)cc3)CC2)C(=O)C2CCN(C(=O)COCC(=O)NCCCCCNC(=O)COCC(=O)N[C@H]3CC[C@@]4(O)[C@H]5Cc6ccc(O)c7c6[C@@]4(CCN5C)[C@H]3O7)CC2)cc1Cl = 187.1
Cc1ccc(N(CCCN2CCC(Cc3ccc(C(N)=O)cc3)CC2)C(=O)C2CCN(C(=O)COCC(=O)NCCCCCCCNC(=O)COCC(=O)N[C@H]3CC[C@@]4(O)[C@H]5Cc6ccc(O)c7c6[C@@]4(CCN5C)[C@H]3O7)CC2)cc1Cl = 692.4

Now for another entry.
query: Find the recorded ED50 belonging to "Cc1ccc(N(CCCN2CCC(Cc3ccc(C(N)=O)cc3)CC2)C(=O)C2CCN(C(=O)COCC(=O)NCCNC(=O)COCC(=O)N[C@H]3CC[C@@]4(O)[C@H]5Cc6ccc(O)c7c6[C@@]4(CCN5C)[C@H]3O7)CC2)cc1Cl" and report it.
result: 56.41

----------
System: Mus musculus
Experiment summary: Toxicity in i.t dosed ICR-CD1 mouse at ED50 after 24 hrs
Assay type: organism-based
Experimental parameters: in vivo, icv_or_intrathecal
Attribute measured: Activity

Cc1ccc(N(CCCN2CCC(Cc3ccc(C(N)=O)cc3)CC2)C(=O)C2CCN(C(=O)COCC(=O)NCCCCCCCNC(=O)COCC(=O)N[C@H]3CC[C@@]4(O)[C@H]5Cc6ccc(O)c7c6[C@@]4(CCN5C)[C@H]3O7)CC2)cc1Cl = Toxic
Cc1ccc(N(CCCN2CCC(Cc3ccc(C(N)=O)cc3)CC2)C(=O)C2CCN(C(=O)COCC(=O)NCCCCCCCCCNC(=O)COCC(=O)N[C@H]3CC[C@@]4(O)[C@H]5Cc6ccc(O)c7c6[C@@]4(CCN5C)[C@H]3O7)CC2)cc1Cl = Non-toxic
Cc1ccc(N(CCCN2CCC(Cc3ccc(C(N)=O)cc3)CC2)C(=O)C2CCN(C(=O)COCC(=O)NCCNC(=O)COCC(=O)N[C@H]3CC[C@@]4(O)[C@H]5Cc6ccc(O)c7c6[C@@]4(CCN5C)[C@H]3O7)CC2)cc1Cl = Non-toxic

----------
System: Mus musculus
Experiment summary: Antinociceptive activity in i.t dosed LPS-induced ICR-CD1 mouse thermal hyperalgesia model assessed as withdrawal latency for radiant heat by tail flick assay
Format: functional
ED50 for assorted molecules

Cc1ccc(N(CCCN2CCC(Cc3ccc(C(N)=O)cc3)CC2)C(=O)C2CCN(C(=O)COCC(=O)NCCCCCNC(=O)COCC(=O)N[C@H]3CC[C@@]4(O)[C@H]5Cc6ccc(O)c7c6[C@@]4(CCN5C)[C@H]3O7)CC2)cc1Cl = 10.92 pmol

query: Find the recorded ED50 belonging to "Cc1ccc(N(CCCN2CCC(Cc3ccc(C(N)=O)cc3)CC2)C(=O)C2CCN(C(=O)COCC(=O)NCCCCCCCCCNC(=O)COCC(=O)N[C@H]3CC[C@@]4(O)[C@H]5Cc6ccc(O)c7c6[C@@]4(CCN5C)[C@H]3O7)CC2)cc1Cl" and report it.
result: 8.43 pmol

query: Find the recorded ED50 belonging to "Cc1ccc(N(CCCN2CCC(Cc3ccc(C(N)=O)cc3)CC2)C(=O)C2CCN(C(=O)COCC(=O)NCCCCCCCCCCNC(=O)COCC(=O)N[C@H]3CC[C@@]4(O)[C@H]5Cc6ccc(O)c7c6[C@@]4(CCN5C)[C@H]3O7)CC2)cc1Cl" and report it.
result: 0.01461 pmol

query: Find the recorded ED50 belonging to "CNC(=O)COCC(=O)NCCCCCCCNC(=O)COCC(=O)N[C@H]1CC[C@@]2(O)[C@H]3Cc4ccc(O)c5c4[C@@]2(CCN3C)[C@H]1O5" and report it.
result: 21.29 pmol

query: Find the recorded ED50 belonging to CN1CC[C@]23c4c5ccc(O)c4O[C@H]2[C@@H](O)C=C[C@H]3[C@H]1C5 [MORPHINE] and report it.
result: 35 pmol

query: Find the recorded ED50 belonging to "Cc1ccc(N(CCCN2CCC(Cc3ccc(C(N)=O)cc3)CC2)C(=O)C2CCN(C(=O)COCC(=O)NCCCCCCCNC(=O)COCC(=O)N[C@H]3CC[C@@]4(O)[C@H]5Cc6ccc(O)c7c6[C@@]4(CCN5C)[C@H]3O7)CC2)cc1Cl" and report it.
result: 11.41 pmol

query: Find the recorded ED50 belonging to "Cc1ccc(N(CCCN2CCC(Cc3ccc(C(N)=O)cc3)CC2)C(=O)C2CCN(C(=O)COCC(=O)NCCCCCCCCCCCCNC(=O)COCC(=O)N[C@H]3CC[C@@]4(O)[C@H]5Cc6ccc(O)c7c6[C@@]4(CCN5C)[C@H]3O7)CC2)cc1Cl" and report it.
result: 122.7 pmol

query: Find the recorded ED50 belonging to "Cc1ccc(N(CCCN2CCC(Cc3ccc(C(N)=O)cc3)CC2)C(=O)C2CCN(C(=O)COCC(=O)NCCNC(=O)COCC(=O)N[C@H]3CC[C@@]4(O)[C@H]5Cc6ccc(O)c7c6[C@@]4(CCN5C)[C@H]3O7)CC2)cc1Cl" and report it.
result: 10.6 pmol
